# system tested: human APJ receptor (Homo sapiens (Human))
# test summary: [35S]GTPγS binding assay on membranes from CHO cells stably expressing human APJ receptor
# Format: biochemical
# condition parameters: [35S]GTPγS SPA, read-out: Activity hAPJ SPA EC50 IP
endpoint name: EC50 (nM)
Your answer is read as nM, so omit the unit and give the number.

Please review the entries below; each comes with its answer.
compound	EC50 [nM]
COc1ncnc(OC)c1-n1c(NS(=O)(=O)[C@@H](C)[C@H](OC)c2ncc(Cl)cn2)nnc1[C@H]1CC[C@@H](C(F)(F)F)CC1 (single isomer, unassigned) [Example 173.0]	13
COc1cccc(OC)c1-n1c(NS(=O)(=O)[C@@H](C)[C@H](OC)c2ncc(Cl)cn2)nnc1[C@H]1CC(=O)C1(C)C (single isomer, unassigned) [Example 196.0]	330

Next compound, please.
Notebook: COc1ncnc(OC)c1-n1c(NS(=O)(=O)[C@@H](C)[C@H](OC)c2ncc(Cl)cn2)nnc1[C@H]1C[C@@H](C(F)(F)F)C1 (single isomer, unassigned) [Example 178.0] , EC50 read as 6.5

====

# system tested: human APJ receptor (Homo sapiens (Human), UniProt P35414)
# Sequence (P35414 whole entry): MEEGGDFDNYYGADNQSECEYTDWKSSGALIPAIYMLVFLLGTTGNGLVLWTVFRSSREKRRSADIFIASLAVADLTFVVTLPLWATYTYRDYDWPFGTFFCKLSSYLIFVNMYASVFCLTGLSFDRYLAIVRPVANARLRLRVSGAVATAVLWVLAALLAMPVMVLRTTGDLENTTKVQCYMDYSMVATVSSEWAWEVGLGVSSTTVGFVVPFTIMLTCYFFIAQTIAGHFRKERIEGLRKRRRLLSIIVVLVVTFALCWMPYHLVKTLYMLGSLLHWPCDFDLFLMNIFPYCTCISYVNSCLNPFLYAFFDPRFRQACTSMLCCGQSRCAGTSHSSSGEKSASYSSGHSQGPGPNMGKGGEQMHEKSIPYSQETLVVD
# test summary: [35S]GTPγS binding assay on membranes from CHO cells stably expressing human APJ receptor
# Format: biochemical
# condition parameters: [35S]GTPγS SPA, read-out: Activity hAPJ SPA EC50 IP
endpoint name: EC50
Give me the value, and tack the unit on after it.

compound	EC50
COc1ncnc(OC)c1-n1c(NS(=O)(=O)[C@@H](C)[C@H](OC)c2ccc(Cl)cn2)nnc1C1CCC1 (single isomer, unassigned) [Example 91.0]	2.9 nM

Consider the additional compound presented here.
Entry COc1cccc(OC)c1-n1c(NS(=O)(=O)[C@@H](C)[C@H](OC)c2ncc(Cl)cn2)nnc1[C@H]1C[C@@H](CO)C1 (single isomer, unassigned) [Example 123.0] , tested on human APJ receptor (Homo sapiens (Human), UniProt P35414), has a reported EC50 of 5.1 nM

====

Some compounds, each annotated with its measured log10 EC50.
# system tested: human APJ receptor (Homo sapiens (Human))
# test summary: [35S]GTPγS binding assay on membranes from CHO cells stably expressing human APJ receptor
# Assay type: biochemical
# condition parameters: [35S]GTPγS SPA, read-out: Activity hAPJ SPA EC50 IP
Values below are the log10 of the recorded EC50, with nM as the unit.

compound	system tested	log10 EC50
COc1ncnc(OC)c1-n1c(NS(=O)(=O)[C@@H](C)[C@H](OC)c2ncc(Cl)cn2)nnc1[C@H]1CC[C@@H](F)CC1 (single isomer, unassigned) [Example 175.0]	human APJ receptor (Homo sapiens (Human))	1.77
COc1ncnc(OC)c1-n1c(NS(=O)(=O)[C@@H](C)[C@H](OC)c2ncc(Cl)cn2)nnc1[C@H]1C[C@@H](C)C1	human APJ receptor (Homo sapiens (Human))	-0.05
COc1ncnc(OC)c1-n1c(NS(=O)(=O)[C@@H](C)[C@H](C)c2ncc(C)cn2)nnc1C1CC2(CC2)C1	human APJ receptor (Homo sapiens (Human))	0.62
COc1cccc(OC)c1-n1c(NS(=O)(=O)[C@@H](C)[C@@H](OC(C)C)c2ncc(C)cn2)nnc1[C@@H]1CCC(=O)C1 (single isomer, unassigned) [Example 229.0]	human APJ receptor (Homo sapiens (Human))	1.48
COc1ncnc(OC)c1-n1c(NS(=O)(=O)[C@@H](C)[C@H](C)c2ccc(Cl)cn2)nnc1C1CCC1	human APJ receptor (Homo sapiens (Human))	0.30

# log10 EC50 (compound: COCC(COC)n1c(NS(=O)(=O)[C@@H](C)[C@H](OC)c2ncc(Cl)cn2)nnc1[C@H]1C[C@H](CO)C1 (single isomer, unassigned) [Example 130.0] ) is 3.18

====

Listing of entries alongside the reported log10 EC50.
# system tested: human APJ receptor (Homo sapiens (Human), UniProt P35414)
# test summary: [35S]GTPγS binding assay on membranes from CHO cells stably expressing human APJ receptor
# Format: biochemical
# condition parameters: [35S]GTPγS SPA, read-out: Activity hAPJ SPA EC50 IP
Give log10 of EC50, with EC50 taken in nM.

compound	numeric value
COc1cccc(OC)c1-n1c(NS(=O)(=O)[C@@H](C)[C@H](OC)c2ncc(Cl)cn2)nnc1[C@H]1C[C@@H](C#N)C1 (single isomer, unassigned) [Example 122.0]	1.45

The reported log10 EC50 value, human APJ receptor (Homo sapiens (Human), UniProt P35414), for COc1cccc(OC)c1-n1c(NS(=O)(=O)[C@@H](C)[C@H](OC)c2ncc(Cl)cn2)nnc1[C@H]1C[C@H](F)C1 (single isomer, unassigned) [Example 152.0] reads 0.62

Simply: CO[C@H](c1ncc(Cl)cn1)[C@H](C)S(=O)(=O)Nc1nnc([C@H]2C[C@H](CO)C2)n1C1CC1 (single isomer, unassigned) [Example 135.0] , human APJ receptor (Homo sapiens (Human), UniProt P35414), log10 EC50 = 3.26

Tested system human APJ receptor (Homo sapiens (Human), UniProt P35414); log10 EC50 recorded for COc1ncnc(OC)c1-n1c(NS(=O)(=O)[C@@H](C)[C@@H](OC(C)C)c2ncc(Cl)cn2)nnc1C1CCC1 [Example 89.0] was -0.13

====

# system tested: human APJ receptor (Homo sapiens (Human), UniProt P35414)
# test summary: [35S]GTPγS binding assay on membranes from CHO cells stably expressing human APJ receptor
# Type: biochemical
# condition parameters: [35S]GTPγS SPA, read-out: Activity hAPJ SPA EC50 IP
# Description: [^35S]GTPγS Binding The human APJ receptor was cloned by polymerase chain reaction and the gene encoding the receptor was subcloned in pFLAG-CMV™-3 expression vector (Sigma, Saint Louis, Mo. USA) in-house at Amgen. […] The optimum experimental conditions for the concentrations of GDP, MgCl2, and NaCl in the assay buffer were initially determined. […] Incubation was at RT for 90 min and the microplate was read using a ViewLux™ ultra HTS Microplate Imager (PerkinElmer, Inc.). […]
endpoint name: log10(EC50) (log10 of the value in nM)
Heads up: the numbers are on a log10 scale; they represent EC50 in nM.

compound	log10(EC50)
COc1ncnc(OC)c1-n1c(NS(=O)(=O)[C@@H](C)[C@H](OC)c2ncc(Cl)cn2)nnc1C1CCCC1 [Example 19.0]	0.04

The recorded log10(EC50) with human APJ receptor (Homo sapiens (Human), UniProt P35414) for COc1cccc(OC)c1-n1c(NS(=O)(=O)[C@@H](C)[C@H](OC)c2ncc(Cl)cn2)nnc1C1CC(C)(C)C1 [Example 119.0] was -0.10

Short answer on human APJ receptor (Homo sapiens (Human), UniProt P35414) for COc1ncnc(OC)c1-n1c(NS(=O)(=O)[C@@H](C)[C@H](OC)c2ncc(Cl)cn2)nnc1[C@H]1C[C@]2(CC2(F)F)C1 (single isomer, unassigned) [Example 204.0] , log10(EC50): 1.53

Lab note: compound COc1cccc(OC)c1-n1c(NS(=O)(=O)[C@@H](C)[C@H](OC)c2ncc(C)cn2)nnc1[C@H]1C[C@H](Cl)C1 (single isomer, unassigned) [Example 191.0] tested on human APJ receptor (Homo sapiens (Human), UniProt P35414); recorded log10(EC50) was 0.88

Kindly note: human APJ receptor (Homo sapiens (Human), UniProt P35414), COc1cccc(OC)c1-n1c(NS(=O)(=O)[C@@H](C)[C@H](OC)c2ncc(Cl)cn2)nnc1[C@@H]1CC[C@H]1C (single isomer, unassigned) [Example 208.0] , log10(EC50) value reported: 0.43

The recorded log10(EC50) with human APJ receptor (Homo sapiens (Human), UniProt P35414) for COc1ncnc(OC)c1-n1c(NS(=O)(=O)[C@@H](C)[C@H](OC)c2ncc(C)cn2)nnc1C1CCC1 [Example 90.0] was 0.96

====

# system tested: human APJ receptor (Homo sapiens (Human), UniProt P35414)
# test summary: [35S]GTPγS binding assay on membranes from CHO cells stably expressing human APJ receptor
# Type: biochemical
# condition parameters: [35S]GTPγS SPA, read-out: Activity hAPJ SPA EC50 IP
endpoint name: EC50 (nM)
Output spec: scalar in nM, unitless text.

# example entries with known answers
compound	EC50 (nM)
COc1ncnc(OC)c1-n1c(NS(=O)(=O)[C@@H](C)[C@H](OC)c2ncc(C)cn2)nnc1C1CC2(CC2)C1 [Example 201.0]	11
COc1ncnc(OC)c1-n1c(NS(=O)(=O)[C@@H](C)[C@H](C)c2ncc(Cl)cn2)nnc1C1CCC1 [Example 85.0]	1.7
COc1ncnc(OC)c1-n1c(NS(=O)(=O)[C@@H](C)[C@H](OC)c2ncc(Cl)cn2)nnc1[C@H]1CC[C@@H](OC)CC1 (single isomer, unassigned) [Example 174.0]	1200
COc1ncnc(OC)c1-n1c(NS(=O)(=O)[C@@H](C)[C@H](OC)c2ncc(Cl)cn2)nnc1[C@H]1CC[C@H]1C(F)F (racemic) [Example 146.0]	26
COc1cccc(OC)c1-n1c(NS(=O)(=O)[C@@H](C)[C@@H](OC(C)C)c2ncc(C)cn2)nnc1[C@H]1C[C@@H](OC)C1 (racemic) [Example 227.0]	2.7

For COc1cccc(OC)c1-n1c(NS(=O)(=O)[C@@H](C)[C@H](OC)c2ncc(Cl)cn2)nnc1C1CCC1C#N (single isomer, unassigned) [Example 170.0] the compound record lists EC50 as 18

Source: patent US11020395B2
